system: Nakaseomyces glabratus; assay: Antifungal activity against Candida glabrata 06-3170 harboring […] T1896G and D632E mutant obtained from patient on compound therapy by M27-A2 method; assay type: functional
*1 amine or outer side, *2 acyl side, *3 side chain or, on linkers, in order; H or OH if unused. Where a SMILES comes first, the peptide text is derived from it. Bridges are numbered along the chain shown (N, C = ends). [ ]: non-standard residue; d: D form. The star is where a group is joined. pTerphenylCO(4''-OnC5H11) = CCCCCOc1ccc(-c2ccc(-c3ccc(C(=O)*)cc3)cc2)cc1; Orn(4R-OH,5R-OH) = O=C([C@H](C[C@@H](O)[C@@H](O)N[*:3])N[*:1])[*:2]; hTyr(3S-OH,4S-OH) = N[C@H](C(=O)O)[C@H](O)[C@@H](O)c1ccc(O)cc1; Pro(3S-OH,4S-Me) = C[C@H]1CN[C@H](C(=O)O)[C@H]1O; Hyp = O=C(O)[C@@H]1C[C@@H](O)CN1
Provide the reported MIC of each item.

As a guide, the following entries are already answered.
INSERT INTO results (molecule, measure, test_value) VALUES
  ('C[C@@H]1[C@H](O)[C@@H](C)/C=C/C=C/C=C/C=C/C=C/C=C/C=C/[C@H](O[C@@H]2O[C@H](C)[C@@H](O)[C@H](N)[C@@H]2O)C[C@@H]2O[C@](O)(C[C@@H](O)C[C@@H](O)[C@H](O)CC[C@@H](O)C[C@@H](O)CC(=O)O[C@H]1C)C[C@H](O)[C@H]2C(=O)O', 'MIC', '0.125 µg/mL'),
  ('C[C@@H](c1ncncc1F)[C@](O)(Cn1cncn1)c1ccc(F)cc1F', 'MIC', '0.03 µg/mL');

Enquiry: Fill in: MIC of CCCCCOc1ccc(-c2ccc(-c3ccc(C(=O)N[C@H]4C[C@@H](O)[C@@H](O)NC(=O)[C@@H]5[C@@H](O)[C@@H](C)CN5C(=O)[C@H]([C@@H](C)O)NC(=O)[C@H]([C@H](O)[C@@H](O)c5ccc(O)cc5)NC(=O)[C@@H]5C[C@@H](O)CN5C(=O)[C@H]([C@@H](C)O)NC4=O)cc3)cc2)cc1 [ANIDULAFUNGIN] ({pTerphenylCO(4''-OnC5H11)}-[Orn(4R-OH,5R-OH)]T[Hyp][hTyr(3S-OH,4S-OH)]T[Pro(3S-OH,4S-Me)]; lactam 1-C) is ___
Return: > 2 µg/mL
